Cited source: the supplement of paper PMC5998384

Tested on: HeLa Kyoto
Experiment: melting temperature (median over replicates), in situ; higher = more thermally stable
Conditions: cell cycle stage: mitosis
Measured endpoint: melting temperature (°C)
Dear colleague, please return just the value in °C, with no unit written.

[ask] // query melting temperature value for entry MPHRKERPSGSSLHTHGSTGTAEGGNMSRLSLTRSPVSPLAAQGIPLPAQLTKSNAPVHIDVGGHMYTSSLATLTKYPDSRISRLFNGTEPIVLDSLKQHYFIDRDGEIFRYVLSFLRTSKLLLPDDFKDFSLLYEEARYYQLQPMVRELERWQQEQEQRRRSRACDCLVVRVTPDLGERIALSGEKALIEEVFPETGDVMCNSVNAGWNQDPTHVIRFPLNGYCRLNSVQVLERLFQRGFSVAASCGGGVDSSQFSEYVLCREERRPQPTPTAVRIKQEPLD [KCTD15]
[reply] 56.9

[ask] Now consider MPKKFQGENTKSAAARARRAEAKAAADAKKQKELEDAYWKDDDKHVMRKEQRKEEKEKRRLDQLERKKETQRLLEEEDSKLKGGKAPRVATSSKVTRAQIEDTLRRDHQLREAPDTAEKAKSHLEVPLEENVNRRVLEEGSVEARTIEDAIAVLSVAEEAADRHPERRMRAAFTAFEEAQLPRLKQENPNMRLSQLKQLLKKEWLRSPDNPMNQRAVPFNAPK [CCDC124] .
[reply] 53.7

[ask] Now consider MAEAVLRVARRQLSQRGGSGAPILLRQMFEPVSCTFTYLLGDRESREAVLIDPVLETAPRDAQLIKELGLRLLYAVNTHCHADHITGSGLLRSLLPGCQSVISRLSGAQADLHIEDGDSIRFGRFALETRASPGHTPGCVTFVLNDHSMAFTGDALLIRGCGRTDFQQGCAKTLYHSVHEKIFTLPGDCLIYPAHDYHGFTVSTVEEERTLNPRLTLSCEEFVKIMGNLNLPKPQQIDFAVPANMRCGVQTPTA [ETHE1] and answer again.
[reply] 56.5

---

Tested on: HeLa Kyoto
Assay: thermal stability score vs G1/S (z-score of summed log2 fold changes over temperatures); higher = more thermally stable than in G1/S
Settings: cell cycle stage: mitosis
Measured endpoint: thermal stability score

[ask] // returns reported thermal stability score for input MGTPGEGLGRCSHALIRGVPESLASGEGAGAGLPALDLAKAQREHGVLGGKLRQRLGLQLLELPPEESLPLGPLLGDTAVIQGDTALITRPWSPARRPEVDGVRKALQDLGLRIVEIGDENATLDGTDVLFTGREFFVGLSKWTNHRGAEIVADTFRDFAVSTVPVSGPSHLRGLCGMGGPRTVVAGSSDAAQKAVRAMAVLTDHPYASLTLPDDAAADCLFLRPGLPGVPPFLLHRGGGDLPNSQEALQKLSDVTLVPVSCSELEKAGAGLSSLCLVLSTRPHS [DDAH2]
[reply] 0.00237

[ask] And then MDAWVRFSAQSQARERLCRAAQYACSLLGHALQRHGASPELQKQIRQLESHLSLGRKLLRLGNSADALESAKRAVHLSDVVLRFCITVSHLNRALYFACDNVLWAGKSGLAPRVDQEKWAQRSFRYYLFSLIMNLSRDAYEIRLLMEQESSACSRRLKGSGGGVPGGSETGGLGGPGTPGGGLPQLALKLRLQVLLLARVLRGHPPLLLDVVRNACDLFIPLDKLGLWRCGPGIVGLCGLVSSILSILTLIYPWLRLKP [PEX11B] , what is it?
[reply] 0.142
